experimental_endpoint: melting point

Example molecules with recorded melting point:
CC(C)(C)C(=O)Oc1ccc(C(=O)c2ccc(OC(=O)C(C)(C)C)cc2OC(=O)C(C)(C)C)c(OC(=O)C(C)(C)C)c1: 154 to 156 °C
CCCO[C@H]1CC[C@H](c2cnc(-c3ccc(C#N)cc3)nc2)CC1: 114 °C
O=Cc1c(O)ccc2c1OCCO2: 62 to 63 °C
COC(=O)C[C@@](O)(CCc1ccc(O)cc1)C(C)C: 89 to 91 °C
CCC(C)(C)NC(=O)NC1=CC(=O)OC1: 169 to 171 °C

Given the molecule CCC1COc2ccccc2C(=O)C1=O (centres undefined) , write its reported melting point. 63 to 66 °C

Given the molecule CCC(=O)C1(Nc2ccccc2)CCN(CCc2cccs2)CC1 , write its reported melting point. 127 °C

Given the molecule CCc1cc(-c2nc(C)c(-c3ccnc(Nc4cccc(CNC(C)=O)c4)n3)s2)ccn1 , write its reported melting point. 180 to 182 °C

Given the molecule Cc1cccc2nc(C(F)(F)F)n(C3CCC(=O)NC3=O)c(=O)c12 (centres undefined) , write its reported melting point. 308 to 310 °C

Given the molecule O=[N+]([O-])C=Cc1ccc(O)c(Cl)c1 , write its reported melting point. 127 to 129 °C

Given the molecule CCCCC(=O)N[C@H]1CC[C@H](CCN2CCC(c3cccc4c3CCO4)CC2)CC1 , write its reported melting point. 186 °C

Given the molecule CCCC(C=NNC(=O)OCC)c1ccc(Cl)cc1Cl (centres undefined) , write its reported melting point. 127 to 129 °C

Given the molecule Cc1cccc(C=NN2CCN(C(c3ccccc3)c3ccccc3)CC2)n1 , write its reported melting point. 130 to 132 °C

Given the molecule COc1cc(-c2cccc(Cl)c2)c2cc(C(O)c3cncn3C)ccc2n1 (centres undefined) , write its reported melting point. 205 °C

* * *

experimental_endpoint: melting point

Example compounds with recorded melting point:
O=S(=O)(c1cccs1)N1CCc2[nH]c3c(cnc4cc(Cl)ccc43)c2C1: > 250 °C
CCOC(=O)c1ccc(NC(=O)N2CCn3c(c(C(N)=O)c(Cl)c3-c3ccccc3)C2)cc1: 260 to 262 °C

Please find the next compound below.
Given the compound O=C(O)Cc1ccc2c(c1)C(=O)Cc1ccccc1C2 , write its reported melting point. 171 to 173 °C

* * *

experimental_endpoint: melting point

Example compounds with recorded melting point:
COc1ccc(-c2ccc(N)nn2)cc1OC1CCCC1: 207 °C
CCOC1C(=O)NC(=O)N1CCCc1ccccc1 (stereo not drawn): 64 °C
COc1cc2nc(N3CCN(C(=O)CC(O)c4ccccc4)CC3)nc(N)c2cc1OC (stereo not drawn): 222 °C
COc1cc2c3c(nc4ccccc4c3c1)-c1ccccc1N2C: 214 to 216 °C
CNC(=S)C1(c2cccnc2)CCCS1 (stereo not drawn): 133 °C

Given the compound COc1cc(NOC(C)=O)cc(OC)c1 , write its reported melting point. 163 to 165 °C

Given the compound CCOC12CCC(=O)CC13CCN(C)C2Cc1ccc(OC)cc13 (stereo not drawn) , write its reported melting point. 171 to 173 °C

Given the compound COCOc1cc(-n2c(OC)nc(C(F)(F)F)cc2=O)c(F)cc1Cl , write its reported melting point. 97 to 98 °C

Given the compound Cc1ccccc1Nc1nc2ccc(CC(=O)Nc3ccc(C4(CC(=O)O)CCCC4)cc3)cc2o1 , write its reported melting point. 123 to 126 °C
